Record: compiled pIC50 on Dual specificity protein kinase CLK1 (Homo sapiens) from multiple reports.
pIC50: −log10 of the molar value.

CCCNc1cc(Nc2ccc(S(=O)(=O)N3CCC(N4CCOCC4)CC3)cc2OC)nc2[nH]cc(C(F)(F)F)c12 :: 6.00 to 6.52
COc1cc(S(C)(=O)=O)ccc1Nc1nc(NCC2CC2)c2cc[nH]c2n1 :: 6.00 to 6.52
CNc1cc(Nc2ccc(C(=O)N3CC[C@H](N4CCOCC4)C3)c3c2OCC3)nc2[nH]cc(C(F)(F)F)c12 :: > 7.00
CC[C@@H](C)Nc1nc(Nc2ccc(P(C)(C)=O)cc2OC)nc2[nH]cc(C#N)c12 :: > 7.00

Observed pIC50, Dual specificity protein kinase CLK1 (Homo sapiens), COCCNc1cc(Nc2ccc(P3(=O)CCN(C4CC4)CC3)cc2OC)nc2[nH]cc(C(F)(F)F)c12 : 6.52 to 7.00

Observed pIC50, Dual specificity protein kinase CLK1 (Homo sapiens), COCCNc1nc(Nc2ccc(S(=O)(=O)N3CCC(N4CCOCC4)CC3)cc2OC)nc2[nH]cc(C(F)(F)F)c12 : > 7.00

Observed pIC50, Dual specificity protein kinase CLK1 (Homo sapiens), COc1cc(S(=O)(=O)N2CCC(N3CCOCC3)CC2)ccc1Nc1nc(NCC2CCCC2)c2c(C(F)(F)F)c[nH]c2n1 : 6.00 to 6.52

Observed pIC50, Dual specificity protein kinase CLK1 (Homo sapiens), COc1cc(S(=O)(=O)N2CCOCC2)ccc1Nc1cc(NC2CCCCC2)c2cc[nH]c2n1 : 6.00 to 6.52

Observed pIC50, Dual specificity protein kinase CLK1 (Homo sapiens), CC(C)CNc1nc(Nc2ccc(C(=O)N3CC(CO)(CO)C3)c3c2OCCO3)nc2[nH]cc(C#N)c12 : > 7.00

Observed pIC50, Dual specificity protein kinase CLK1 (Homo sapiens), C=CCNc1nc(Nc2ccc(S(=O)(=O)N3CCOCC3)cc2OC)nc2[nH]ccc12 : 6.00 to 6.52

Observed pIC50, Dual specificity protein kinase CLK1 (Homo sapiens), CC(C)CNc1nc(Nc2ccc(C(=O)N3CCOCC3)c3c2OCCO3)nc2[nH]ccc12 : 6.00 to 6.52

Observed pIC50, Dual specificity protein kinase CLK1 (Homo sapiens), COc1cc(P(C)(C)=O)ccc1Nc1nc(NC2CCC2)c2c(C#N)c[nH]c2n1 : 6.52 to 7.00

Observed pIC50, Dual specificity protein kinase CLK1 (Homo sapiens), C[C@H]1CN(C)Cc2c(c(C#N)nn2C)/C=C/c2n[nH]c3ccc(cc23)-c2cnn(C)c2O1 : 9.85

Observed pIC50, Dual specificity protein kinase CLK1 (Homo sapiens), CCc1nc(Nc2ccc(P3(=O)CCN(C4CC4)CC3)cc2OC)nc2[nH]cc(C(F)(F)F)c12 : 6.00 to 6.52

Observed pIC50, Dual specificity protein kinase CLK1 (Homo sapiens), CCCNc1cc(Nc2ccc(S(C)(=O)=O)cc2OC)nc2[nH]cc(C(F)(F)F)c12 : 6.00 to 6.52

---

pIC50: −log10 of the molar value.
Record: compiled pIC50 on Dual specificity protein kinase CLK1 (Homo sapiens) from multiple reports.

Worked examples follow.
CCNc1cc(Nc2ccc(S(=O)(=O)N3CCC(N4CCOCC4)CC3)cc2OC)nc2[nH]cc(C#N)c12 :: 6.00 to 6.52
COc1cc(P2(=O)CCN(C3CC3)CC2)ccc1Nc1nc(NC2CCOCC2)c2c(C#N)c[nH]c2n1 :: 6.00 to 6.52
COCCNc1cc(Nc2ccc(S(=O)(=O)N3CCC(N4CCOCC4)CC3)cc2OC)nc2[nH]cc(C#N)c12 :: > 7.00
N#Cc1c[nH]c2nc(Nc3ccc(C(=O)N4CCOCC4)c4c3OCCO4)nc(C3CC3)c12 :: > 7.00
CCN1Cc2c(c(OC(C)C)nn2CCO)/C=C/c2n[nH]c3cc(F)c(cc23)-c2cnn(C)c2O[C@@H](C)C1 :: 8.69

Observed pIC50, Dual specificity protein kinase CLK1 (Homo sapiens), CCOc1nn(CCO)c2c1/C=C/c1n[nH]c3ccc(cc13)-c1cnn(C)c1OC[C@H](CC)N(C)C2 : 9.05

Observed pIC50, Dual specificity protein kinase CLK1 (Homo sapiens), COc1cc(S(C)(=O)=O)ccc1Nc1nc(NC2CCCC2)c2c(C(F)(F)F)c[nH]c2n1 : 6.00 to 6.52

Observed pIC50, Dual specificity protein kinase CLK1 (Homo sapiens), COc1cc(P(C)(C)=O)ccc1Nc1nc(N[C@@H]2CCOC2)c2c(C(F)(F)F)c[nH]c2n1 : > 7.00

Observed pIC50, Dual specificity protein kinase CLK1 (Homo sapiens), CC[C@H](C)Nc1nc(Nc2ccc(S(=O)(=O)N3CCOCC3)cc2OC)nc2[nH]cc(C(F)(F)F)c12 : 6.00 to 6.52

Observed pIC50, Dual specificity protein kinase CLK1 (Homo sapiens), COc1cc(S(=O)(=O)N2CCOCC2)ccc1Nc1nc(N[C@@H]2CCOC2)c2c(C(F)(F)F)c[nH]c2n1 : 6.00 to 6.52

Observed pIC50, Dual specificity protein kinase CLK1 (Homo sapiens), CCc1nn(C)c2c1/C=C/c1n[nH]c3ccc(cc13)-c1cnn(C)c1OCCOC2 : 9.48

Observed pIC50, Dual specificity protein kinase CLK1 (Homo sapiens), CCNc1cc(Nc2ccc(C(=O)N3CCC(N4C[C@@H]5C[C@H]4CO5)CC3)c3c2OCC3)nc2[nH]cc(C(F)(F)F)c12 : > 7.00

Observed pIC50, Dual specificity protein kinase CLK1 (Homo sapiens), CS(=O)(=O)CCNc1cc(Nc2ccc(C(=O)N3CCOCC3)c3c2OCCO3)nc2[nH]ccc12 : 6.00 to 6.52

Observed pIC50, Dual specificity protein kinase CLK1 (Homo sapiens), CCCNc1nc(Nc2ccc(C(=O)N3CCOCC3)c3c2OCCO3)nc2[nH]cc(C(F)(F)F)c12 : 6.00 to 6.52

Observed pIC50, Dual specificity protein kinase CLK1 (Homo sapiens), COc1cc(S(=O)(=O)N2CCOCC2)ccc1Nc1cc(NCCS(C)(=O)=O)c2cc[nH]c2n1 : 6.00 to 6.52

---

Record: compiled pIC50 on Dual specificity protein kinase CLK1 (Homo sapiens) from multiple reports.
pIC50: −log10 of the molar value.

Worked examples follow.
COc1cc(S(=O)(=O)N2CCC(N3CCOCC3)CC2)ccc1Nc1cc(NC2CC2)c2c(Cl)c[nH]c2n1 :: 6.00 to 6.52
CCOc1nn([C@@H](C)CO)c2c1/C=C/c1n[nH]c3cc(F)c(cc13)-c1cnn(C)c1OC[C@H](C)N(C(C)C)C2 :: 7.66
N#Cc1c[nH]c2nc(Nc3ccc(C(=O)N4CC(CO)(CO)C4)c4c3OCCO4)nc(NC3CCOCC3)c12 :: > 7.00
CCOc1nn(CCO)c2c1/C=C/c1n[nH]c3ccc(cc13)-c1cnn(C)c1OC[C@H](C)N(C1CC1)C2 :: 9.12
CCNc1cc(Nc2ccc(C(=O)N3CCC(N(C)C)CC3)c3c2OCC3)nc2[nH]cc(C(F)(F)F)c12 :: > 7.00

pIC50 in this record for COc1cc(S(=O)(=O)N2CCC(N3CCOCC3)CC2)ccc1Nc1nc(NCC(C)C)c2c(C#N)c[nH]c2n1 : 6.00 to 6.52

pIC50 in this record for CNc1nc(Nc2ccc(C(=O)N3CCC(N4CCOCC4)CC3)c3c2OCCO3)nc2[nH]cc(C#N)c12 : > 7.00

pIC50 in this record for COc1cc(P2(=O)CCN(C3CCOCC3)CC2)ccc1Nc1nc(NC2CC2)c2c(C(F)(F)F)c[nH]c2n1 : > 7.00

pIC50 in this record for CCCNc1cc(Nc2ccc(S(=O)(=O)N3CCOCC3)cc2OC)nc2[nH]cc(Cl)c12 : 6.00 to 6.52

---

Record: compiled IC50 on Dual specificity protein kinase CLK1 (Homo sapiens, UniProt P49759) from multiple reports.

Worked examples follow.
COc1cc(S(=O)(=O)N2CCOCC2)ccc1Nc1nc(NCC2CC2)c2c(C(F)(F)F)c[nH]c2n1 :: 0.101 to 0.3 µM
CCN1Cc2c(c(OC(C)C)nn2CC(C)=O)/C=C/c2n[nH]c3ccc(cc23)-c2cnn(C)c2O[C@@H](C)C1 :: 0.00064 µM
CC[C@@H](C)Nc1nc(Nc2ccc(C(=O)N3CCC(N4CCOCC4)CC3)c3c2OCC3)nc2[nH]cc(C#N)c12 :: < 0.1 µM
COc1cc(S(=O)(=O)N2CCC(N3CCOCC3)CC2)ccc1Nc1cc(NC2CCCCC2)c2c(C#N)c[nH]c2n1 :: 0.301 to 1 µM
N#Cc1c[nH]c2nc(Nc3ccc(C(=O)N4CCOCC4)c4c3OCCO4)nc(NC3CCOCC3)c12 :: 0.301 to 1 µM
CCNc1nc(Nc2ccc(S(=O)(=O)N3CCC(N4CCOCC4)CC3)c3c2OCCO3)nc2[nH]cc(C(F)(F)F)c12 :: 0.101 to 0.3 µM

IC50 in this record for CCNc1cc(Nc2ccc(C(=O)N3C[C@@H]4C[C@H]3CO4)c3c2OCCO3)nc2[nH]cc(C(F)(F)F)c12 : < 0.1 µM
